# System: NADPH oxidase
# experimentNotes: NADPH oxidase activity (lucigenin chemiluminescence) in cell homogenates
# Format: cell-based, human
# Parameters: concentration or dose not given beside the values
# testConditions: averaged % of increase (+) or decrease (−) compared to control (FFA induced oxidatively stressed endothelial cells), n = 3
Entries annotated with measured NADPH oxidase activity

compound	NADPH oxidase activity / %
COC(=O)c1cc(OC[C@@H](COS(=O)(=O)[O-])OS(=O)(=O)[O-])ccc1OCC(COS(=O)(=O)[O-])OS(=O)(=O)[O-].[Na+].[Na+].[Na+].[Na+] (mixture of isomers)	−29
O=C(O)c1cc(OCC(O)CO)ccc1OCC(O)CO (mixture of isomers) [α-3]	−21
O=C([O-])c1cc(OC[C@H](COS(=O)(=O)[O-])OS(=O)(=O)[O-])ccc1OCC(COS(=O)(=O)[O-])OS(=O)(=O)[O-].[Na+].[Na+].[Na+].[Na+].[Na+] (mixture of isomers)	−31
COC(=O)c1cc(OC[C@H](O)CO)ccc1OC[C@@H](O)CO (mixture of isomers)	−26
COC(=O)c1cc(OC[C@H](COS(=O)(=O)[O-])OS(=O)(=O)[O-])ccc1OCCCCOS(=O)(=O)[O-].[Na+].[Na+].[Na+]	−31
O=C(O)c1cc(OCC(O)CO)ccc1OCC(O)CO (mixture of isomers) [β-3]	−27
COC(=O)c1cc(OC[C@@H](COS(=O)(=O)[O-])OS(=O)(=O)[O-])ccc1OCCCCOS(=O)(=O)[O-].[Na+].[Na+].[Na+]	−27

* * *

Entries annotated with measured microsomal CLint at 0.75 h, 3 µM
# experimentNotes: Microsomal metabolic stability, mouse liver microsomes
# testConditions: liver microsomes (pooled), pH 7.4
endpoint: microsomal CLint at 0.75 h, 3 µM (µL/min/mg)

compound	recordedValue
COC(=O)c1cc(OC[C@H](COS(=O)(=O)[O-])OS(=O)(=O)[O-])ccc1OCCCCOS(=O)(=O)[O-].[Na+].[Na+].[Na+] [Compound R-10]	0.402
COC(=O)c1cc(OC[C@@H](COS(=O)(=O)[O-])OS(=O)(=O)[O-])ccc1OCCCCOS(=O)(=O)[O-].[Na+].[Na+].[Na+] [Compound S-10]	0.333

* * *

# studySystem: hERG (Homo sapiens)
# Sequence (Q12809 whole entry): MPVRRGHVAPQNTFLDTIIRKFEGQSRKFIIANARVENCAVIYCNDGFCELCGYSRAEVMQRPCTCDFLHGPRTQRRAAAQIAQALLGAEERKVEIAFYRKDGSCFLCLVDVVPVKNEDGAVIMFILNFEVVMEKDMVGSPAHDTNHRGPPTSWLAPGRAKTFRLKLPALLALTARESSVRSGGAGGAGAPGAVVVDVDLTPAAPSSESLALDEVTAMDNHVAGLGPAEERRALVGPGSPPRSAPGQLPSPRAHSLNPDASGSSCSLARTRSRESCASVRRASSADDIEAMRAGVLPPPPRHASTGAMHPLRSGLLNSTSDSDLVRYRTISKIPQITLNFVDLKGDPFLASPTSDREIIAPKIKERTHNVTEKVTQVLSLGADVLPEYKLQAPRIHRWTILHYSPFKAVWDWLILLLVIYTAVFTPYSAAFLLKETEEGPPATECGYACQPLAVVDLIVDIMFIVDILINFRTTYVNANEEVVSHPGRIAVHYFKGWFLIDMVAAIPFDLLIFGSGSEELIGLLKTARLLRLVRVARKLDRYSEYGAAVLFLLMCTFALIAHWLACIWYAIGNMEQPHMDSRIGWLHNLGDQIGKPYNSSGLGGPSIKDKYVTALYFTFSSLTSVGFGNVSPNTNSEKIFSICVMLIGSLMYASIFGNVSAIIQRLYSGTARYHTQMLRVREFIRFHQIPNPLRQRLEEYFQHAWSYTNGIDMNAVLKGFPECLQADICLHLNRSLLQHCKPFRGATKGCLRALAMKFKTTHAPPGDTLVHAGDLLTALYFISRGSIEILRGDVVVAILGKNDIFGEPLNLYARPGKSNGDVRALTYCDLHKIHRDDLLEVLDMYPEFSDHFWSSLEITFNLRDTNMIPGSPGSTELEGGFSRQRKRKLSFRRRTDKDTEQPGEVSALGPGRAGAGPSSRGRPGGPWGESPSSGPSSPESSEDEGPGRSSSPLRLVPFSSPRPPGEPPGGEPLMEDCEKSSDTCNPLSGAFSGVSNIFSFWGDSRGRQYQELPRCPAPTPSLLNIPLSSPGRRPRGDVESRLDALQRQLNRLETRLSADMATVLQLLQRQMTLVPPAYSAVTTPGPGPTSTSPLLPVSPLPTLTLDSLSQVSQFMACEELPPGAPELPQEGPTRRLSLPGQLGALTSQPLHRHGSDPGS
# experimentNotes: hERG automated patch clamp (IonWorks, CHO-hERG cells)
# testConditions: CHO cells stably transfected with hERG; top concentration 25 µM

compound	IC50
O=C([O-])c1cc(OC[C@H](COS(=O)(=O)[O-])OS(=O)(=O)[O-])ccc1OCC(COS(=O)(=O)[O-])OS(=O)(=O)[O-].[Na+].[Na+].[Na+].[Na+].[Na+] (mixture of isomers)	> 25 µM

* * *

# System: eNOS
# experimentNotes: eNOS phosphorylation (Western blot) in FFA-stressed cells
# Format: cell-based, human
# testConditions: averaged % of increase (+) or decrease (−) compared to control (FFA induced oxidatively stressed endothelial cells), n = 3

compound	eNOS phosphorylation
O=C(O)c1cc(OCC(O)CO)ccc1OCC(O)CO (mixture of isomers) [α-3]	+312%
COC(=O)c1cc(OC[C@H](O)CO)ccc1OC[C@@H](O)CO (mixture of isomers) [α-2]	+286%
COC(=O)c1cc(OC[C@@H](COS(=O)(=O)[O-])OS(=O)(=O)[O-])ccc1OCCCCOS(=O)(=O)[O-].[Na+].[Na+].[Na+] [Compound S-10]	+397%
COC(=O)c1cc(OC[C@H](COS(=O)(=O)[O-])OS(=O)(=O)[O-])ccc1OCCCCOS(=O)(=O)[O-].[Na+].[Na+].[Na+] [Compound R-10]	+613%
O=C(O)c1cc(OCC(O)CO)ccc1OCC(O)CO (mixture of isomers) [β-3]	+294%
O=C([O-])c1cc(OC[C@H](COS(=O)(=O)[O-])OS(=O)(=O)[O-])ccc1OCC(COS(=O)(=O)[O-])OS(=O)(=O)[O-].[Na+].[Na+].[Na+].[Na+].[Na+] (mixture of isomers) [β-5]	+318%
COC(=O)c1cc(OC[C@@H](COS(=O)(=O)[O-])OS(=O)(=O)[O-])ccc1OCC(COS(=O)(=O)[O-])OS(=O)(=O)[O-].[Na+].[Na+].[Na+].[Na+] (mixture of isomers) [α-4]	+342%

* * *

# experimentNotes: Turbidimetric kinetic aqueous solubility
# Format: physicochemical
# testConditions: pH 7.4
# Description: Physicochemical and ADMET properties of representative glycomimetics. […] The cells were incubated for 30 min in Hepes-buffered solution containing 10 μmol/L dihydroethidium (DHE), which intercalates with DNA in the presence of ROS and is detectable by fluorescence. Cells were counterstained with the nuclear stain DAPI at 0.3 μmol/L. In the following 24 h, the cell cultures were examined using a fluorescence microscope (Leica DMIRB). […]
endpoint: solubility kinetic at 2 h

COC(=O)c1cc(OC[C@@H](COS(=O)(=O)[O-])OS(=O)(=O)[O-])ccc1OCCCCOS(=O)(=O)[O-].[Na+].[Na+].[Na+] > 100 µM

* * *

Entries annotated with measured half-life at 3 µM
# experimentNotes: Microsomal metabolic stability, rat liver microsomes
# Assay type: in vitro ADME
# testConditions: liver microsomes (pooled), pH 7.4, 3 µM, 0.5 mg/mL protein, read-out: RLM t1/2

compound	half-life at 3 µM, h
O=C([O-])c1cc(OC[C@H](COS(=O)(=O)[O-])OS(=O)(=O)[O-])ccc1OCC(COS(=O)(=O)[O-])OS(=O)(=O)[O-].[Na+].[Na+].[Na+].[Na+].[Na+] (mixture of isomers)	35.7
COC(=O)c1cc(OC[C@@H](COS(=O)(=O)[O-])OS(=O)(=O)[O-])ccc1OCC(COS(=O)(=O)[O-])OS(=O)(=O)[O-].[Na+].[Na+].[Na+].[Na+] (mixture of isomers)	2.42

* * *

# experimentNotes: Microsomal metabolic stability, mouse liver microsomes
# testConditions: liver microsomes (pooled), pH 7.4
endpoint: half-life at 0.75 h, 3 µM

COC(=O)c1cc(OC[C@H](COS(=O)(=O)[O-])OS(=O)(=O)[O-])ccc1OCCCCOS(=O)(=O)[O-].[Na+].[Na+].[Na+] 57.5 h

* * *

# experimentNotes: Turbidimetric kinetic aqueous solubility
# Assay type: physicochemical
# testConditions: phosphate buffered saline; turbidimetric assay, PBS pH 7.4, 37 °C, 2 h; read-out: Kinetic solubility
endpoint: solubility kinetic at 2 h

compound	endpoint	recordedValue
COC(=O)c1cc(OC[C@@H](COS(=O)(=O)[O-])OS(=O)(=O)[O-])ccc1OCC(COS(=O)(=O)[O-])OS(=O)(=O)[O-].[Na+].[Na+].[Na+].[Na+] (mixture of isomers)	solubility kinetic at 2 h	> 100 µM
O=C([O-])c1cc(OC[C@H](COS(=O)(=O)[O-])OS(=O)(=O)[O-])ccc1OCC(COS(=O)(=O)[O-])OS(=O)(=O)[O-].[Na+].[Na+].[Na+].[Na+].[Na+] (mixture of isomers)	solubility kinetic at 2 h	> 100 µM
COC(=O)c1cc(OC[C@H](COS(=O)(=O)[O-])OS(=O)(=O)[O-])ccc1OCCCCOS(=O)(=O)[O-].[Na+].[Na+].[Na+]	solubility kinetic at 2 h	> 100 µM
